The measurements presented in this section are drawn from paper PMC9382030.

molecular target: exocyst subcomplex-1 (Exoc1:2:3:4) (Homo sapiens, UniProt Q9NV70); construct: Sf9 baculovirus; heterotetramer; 6xHis-mNeonGreen-Exoc4 (tag kept), 6xHis-MBP on Exoc1 cut with HRV3C, Exoc2 and Exoc3 untagged; PH domain of Exoc1 is the known PI(4,5)P2 site; with Exocyst complex component 2; Exocyst complex component 3; Exocyst complex component 4; experiment: membrane-coated bead recruitment, confocal fluorescence, single-site fit; settings: apparent affinity in protein concentration; 5 mol% PI(4,5)P2, 85% POPC, 10% phosphatidylserine on silica beads; room temperature, 30 min; 20 mM HEPES, 150 mM NaCl; read-out: KD,relative
Sequence (Q9NV70 whole entry, the tested form may be a part): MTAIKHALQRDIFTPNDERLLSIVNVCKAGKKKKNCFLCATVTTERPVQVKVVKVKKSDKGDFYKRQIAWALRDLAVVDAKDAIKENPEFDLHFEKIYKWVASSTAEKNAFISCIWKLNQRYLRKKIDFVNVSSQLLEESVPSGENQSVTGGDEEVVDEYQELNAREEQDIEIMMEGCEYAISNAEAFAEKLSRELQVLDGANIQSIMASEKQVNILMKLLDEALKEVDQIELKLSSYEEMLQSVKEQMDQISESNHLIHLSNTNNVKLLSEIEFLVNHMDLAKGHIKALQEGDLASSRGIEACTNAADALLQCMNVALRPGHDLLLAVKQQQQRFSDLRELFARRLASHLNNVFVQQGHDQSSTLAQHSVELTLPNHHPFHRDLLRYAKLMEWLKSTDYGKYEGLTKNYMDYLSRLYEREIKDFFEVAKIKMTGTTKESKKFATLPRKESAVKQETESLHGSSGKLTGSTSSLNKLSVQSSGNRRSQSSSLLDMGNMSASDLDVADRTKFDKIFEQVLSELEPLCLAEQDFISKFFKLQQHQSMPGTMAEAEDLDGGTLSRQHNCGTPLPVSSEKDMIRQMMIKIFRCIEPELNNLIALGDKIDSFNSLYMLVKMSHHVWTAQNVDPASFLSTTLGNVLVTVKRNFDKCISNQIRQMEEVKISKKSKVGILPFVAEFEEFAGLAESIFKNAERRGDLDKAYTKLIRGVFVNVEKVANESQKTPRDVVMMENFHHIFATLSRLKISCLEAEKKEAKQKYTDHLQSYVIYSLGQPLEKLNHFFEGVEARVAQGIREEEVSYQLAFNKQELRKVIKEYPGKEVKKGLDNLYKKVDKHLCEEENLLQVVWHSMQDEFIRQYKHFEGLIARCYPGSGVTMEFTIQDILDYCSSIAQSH
Sequence (Q96KP1 whole entry partner, the tested form may be a part): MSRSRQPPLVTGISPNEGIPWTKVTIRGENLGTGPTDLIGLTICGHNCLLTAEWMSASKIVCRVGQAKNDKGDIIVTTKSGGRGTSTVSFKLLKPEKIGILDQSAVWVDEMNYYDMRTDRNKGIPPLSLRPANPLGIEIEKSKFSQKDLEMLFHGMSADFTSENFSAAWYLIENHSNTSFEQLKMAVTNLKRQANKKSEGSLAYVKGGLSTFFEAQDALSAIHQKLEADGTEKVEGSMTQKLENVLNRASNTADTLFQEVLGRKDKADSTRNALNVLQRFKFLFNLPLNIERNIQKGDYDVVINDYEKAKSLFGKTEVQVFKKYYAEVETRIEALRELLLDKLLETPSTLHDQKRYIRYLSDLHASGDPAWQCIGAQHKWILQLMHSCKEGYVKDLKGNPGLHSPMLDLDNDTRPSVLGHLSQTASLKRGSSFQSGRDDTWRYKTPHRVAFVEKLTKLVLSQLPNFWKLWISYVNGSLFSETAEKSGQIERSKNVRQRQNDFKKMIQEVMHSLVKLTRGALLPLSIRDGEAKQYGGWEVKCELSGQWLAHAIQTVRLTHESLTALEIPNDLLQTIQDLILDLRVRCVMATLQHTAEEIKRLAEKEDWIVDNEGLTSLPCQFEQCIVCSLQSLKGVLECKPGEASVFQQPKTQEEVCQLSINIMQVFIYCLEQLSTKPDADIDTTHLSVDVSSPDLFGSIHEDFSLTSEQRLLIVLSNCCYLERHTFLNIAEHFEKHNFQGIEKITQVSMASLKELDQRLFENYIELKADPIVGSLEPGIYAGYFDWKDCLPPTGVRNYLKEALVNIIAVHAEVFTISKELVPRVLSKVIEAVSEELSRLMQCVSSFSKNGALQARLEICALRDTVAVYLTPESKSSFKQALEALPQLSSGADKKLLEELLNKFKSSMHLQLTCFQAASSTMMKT
Sequence (O60645 whole entry partner, the tested form may be a part): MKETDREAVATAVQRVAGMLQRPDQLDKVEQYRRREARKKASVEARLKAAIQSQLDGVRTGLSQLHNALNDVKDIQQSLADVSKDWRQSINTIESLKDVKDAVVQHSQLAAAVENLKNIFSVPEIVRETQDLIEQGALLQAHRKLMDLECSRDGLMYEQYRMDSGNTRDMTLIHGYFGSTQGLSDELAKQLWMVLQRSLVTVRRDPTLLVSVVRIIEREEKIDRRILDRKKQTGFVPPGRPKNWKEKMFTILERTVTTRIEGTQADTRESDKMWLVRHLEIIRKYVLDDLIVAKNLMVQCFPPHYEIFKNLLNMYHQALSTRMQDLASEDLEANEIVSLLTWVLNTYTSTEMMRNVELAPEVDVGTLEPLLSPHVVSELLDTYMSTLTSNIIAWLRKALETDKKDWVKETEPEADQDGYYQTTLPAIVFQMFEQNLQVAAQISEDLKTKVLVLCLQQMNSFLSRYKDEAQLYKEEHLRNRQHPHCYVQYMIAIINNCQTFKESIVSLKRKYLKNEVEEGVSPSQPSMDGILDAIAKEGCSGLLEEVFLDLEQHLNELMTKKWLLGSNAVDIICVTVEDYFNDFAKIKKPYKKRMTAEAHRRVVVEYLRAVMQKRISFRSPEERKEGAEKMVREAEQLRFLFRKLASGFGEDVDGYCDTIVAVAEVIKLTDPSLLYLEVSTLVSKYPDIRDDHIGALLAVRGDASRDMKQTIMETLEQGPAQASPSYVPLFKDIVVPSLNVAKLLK
Sequence (Q96A65 2-974 partner): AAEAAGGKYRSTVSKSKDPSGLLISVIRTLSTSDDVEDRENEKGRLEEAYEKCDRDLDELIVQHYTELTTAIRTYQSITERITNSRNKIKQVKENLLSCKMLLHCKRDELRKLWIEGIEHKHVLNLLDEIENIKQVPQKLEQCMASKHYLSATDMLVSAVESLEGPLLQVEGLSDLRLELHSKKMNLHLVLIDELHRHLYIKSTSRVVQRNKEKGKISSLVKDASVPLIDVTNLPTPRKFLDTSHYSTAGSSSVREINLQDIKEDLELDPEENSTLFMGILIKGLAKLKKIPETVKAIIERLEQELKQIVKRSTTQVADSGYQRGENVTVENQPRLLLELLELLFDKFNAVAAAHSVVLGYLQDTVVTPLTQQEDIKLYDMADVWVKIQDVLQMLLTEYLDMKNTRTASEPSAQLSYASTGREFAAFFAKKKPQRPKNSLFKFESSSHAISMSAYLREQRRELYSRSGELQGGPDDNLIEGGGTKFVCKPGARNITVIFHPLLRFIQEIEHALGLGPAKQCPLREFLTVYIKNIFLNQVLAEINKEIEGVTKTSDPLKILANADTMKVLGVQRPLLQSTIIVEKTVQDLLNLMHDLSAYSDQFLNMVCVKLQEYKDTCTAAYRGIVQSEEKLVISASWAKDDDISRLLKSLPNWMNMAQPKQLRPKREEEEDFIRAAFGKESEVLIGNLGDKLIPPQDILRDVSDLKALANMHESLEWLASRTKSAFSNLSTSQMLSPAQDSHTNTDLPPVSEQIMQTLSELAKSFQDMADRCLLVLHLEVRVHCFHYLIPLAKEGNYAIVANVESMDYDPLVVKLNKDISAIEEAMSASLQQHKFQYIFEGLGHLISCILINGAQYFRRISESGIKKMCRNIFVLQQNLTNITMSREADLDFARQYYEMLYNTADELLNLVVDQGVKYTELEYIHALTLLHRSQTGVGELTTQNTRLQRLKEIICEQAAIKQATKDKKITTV
VALUE_KIND: Kd (nM)
Express it in nM; write the number only.

For the compound CCCCCCCCCCCCCCCC(=O)OC[C@H](COP(=O)(O)O[C@@H]1[C@H](O)[C@H](O)[C@@H](OP(=O)(O)O)[C@H](OP(=O)(O)O)[C@H]1O)OC(=O)CCCCCCCCCCCCCCC [PI(4,5)P2] , report Kd. 36.1
